tested on: SNB-75 CNS; experiment: NCI tumour cell line growth inhibition, 48 h
Classify by measured TGI: Y if it is equal to or exceeds 50 µM, N if it is smaller.

{"columns": ["Molecule", "Assayed Target", "Label"],
 "data": [
  ["Cc1ncc(C(=O)Nc2ccc(CN3CCN(C)CC3)c(C(F)(F)F)c2)cc1C#Cc1c(N)ncc2ccccc12", "SNB-75 CNS", "N"],
  ["NCc1c(C(N)=O)ncn1Cc1ccccc1", "SNB-75 CNS", "Y"],
  ["O=C(O)c1ccccc1N=Nc1ccc2oc(=O)c(C(=O)Nc3ccccc3)cc2c1", "SNB-75 CNS", "Y"],
  ["O=c1oc2c3ccc4cnccc4c3[nH]c2c2ccccc12", "SNB-75 CNS", "Y"],
  ["O=C(COc1cccc(/C=C2\\Oc3ccc4ccccc4c3C2=O)c1)c1ccc(Cl)cc1", "SNB-75 CNS", "Y"],
  ["CC(C)C(=O)[O-].CC(C)C(=O)[O-].N.N.N.N.[Co+3].[O-][Cl+3]([O-])([O-])[O-]", "SNB-75 CNS", "Y"],
  ["Cc1cc(O)cc(O)c1C(=O)O[C@]1(C)C(=O)C=C2C=C(/C=C/C(=O)O)OC=C2C1=O", "SNB-75 CNS", "Y"],
  ["CCCCn1c2ccccc2c2ccc3c(c21)C(=O)C=CC3=O", "SNB-75 CNS", "N"],
  ["O=[N+]([O-])c1ccc(N2N=C(c3ccc4ccccc4c3O)CC2c2ccc(Cl)cc2)c([N+](=O)[O-])c1 (stereo not given)", "SNB-75 CNS", "Y"],
  ["CCCCCN(CCCCC)CC(C)(C)C(O)c1ccc(OC)c2ccccc12 (stereo not given)", "SNB-75 CNS", "Y"]
]}

###

The entries below come with measured TGI values attached.
tested on: ACHN renal; assay: NCI tumour cell line growth inhibition, 48 h
Measured Endpoint: TGI (µM)

{"columns": ["Compound", "Sign Qualifier", "Quantitative Readout"],
 "data": [
  ["COC(=O)C1=CON2C3CC4CC(C3)CC(C4)C12C (centres undefined)", ">", 100],
  ["Cc1cc(N(CCC#N)CCC#N)ccc1/C=C1\\SC(=S)NC1=O", ">", 100],
  ["N#Cc1ccc(Oc2cccc(Oc3ccccc3)c2)cc1C#N", ">", 100],
  ["O=C1CS(=O)(=O)C(c2cccc(Oc3ccccc3)c2)N1c1ccccc1 (centres undefined)", "=", 64.8],
  ["CCOC(=O)C(C)(C)Oc1ccc2c(-c3ccc(Cl)cc3)c(-c3ccc(Cl)cc3)c(=O)oc2c1", ">", 100],
  ["CCN(CC)c1ccc(N=C2C=C(Cl)C(=O)c3ncccc32)c(C)c1", "=", 11.1],
  ["OCC(CCc1c[nH]c2ccccc12)c1c[nH]c2ccccc12 (centres undefined)", "=", 45.1],
  ["Nc1ccc(C(OC(=O)c2cc3ccccc3c(Cc3c(O)c(C(=O)OC(c4ccc(N)cc4)(c4ccc(N)cc4)c4ccc(N)cc4)cc4ccccc34)c2O)(c2ccc(N)cc2)c2ccc(N)cc2)cc1", "=", 54],
  ["O=[N+]([O-])c1ccc([N+]2=NC(c3ccccc3)=NN(c3ccccc3)C2)cc1", ">", 100]
]}

###

tested on: SN12C renal; experiment: NCI tumour cell line growth inhibition, 48 h

{"columns": ["Compound", "Sign Qualifier", "TGI (µM)"],
 "data": [
  ["CCCCCN(CCCCC)CC(C)(C)C(O)c1ccc(OC)c2ccccc12 (stereo unspecified)", "=", 25.2],
  ["Cn1c(=O)c(C(=O)NC(=O)NCCCCCOC(=O)CCCCCCCCCCC(=O)OCCCCCNC(=O)NC(=O)c2cn(Cc3ccccc3)c(=O)n(C)c2=O)cn(Cc2ccccc2)c1=O", ">", 100],
  ["Nc1cc(S(N)(=O)=O)ccc1SSc1ccc(S(N)(=O)=O)cc1N", ">", 100],
  ["O=C(CSc1nnc(-c2ccc(N=Cc3ccc(Cl)cc3)cc2)o1)Nc1ccc([N+](=O)[O-])cc1", "=", 37.7],
  ["COc1ccc(-c2ccc(-c3ccc(C(=N)N)cn3)o2)cc1Cl", "=", 3.45],
  ["O=C(O)c1ccccc1N=Nc1ccc2oc(=O)c(C(=O)Nc3ccccc3)cc2c1", ">", 100],
  ["CC1(C(=O)O)CCOc2ccccc21 (stereo unspecified)", ">", 100],
  ["Fc1ccc2c(c1)C1=C(CO2)C(c2ccc(Cl)cc2)NC(=S)N1 (stereo unspecified)", "=", 40.2],
  ["Cc1ccccc1C(=O)Oc1ccc(OCc2ccccc2)cc1", ">", 100],
  ["COc1cc(F)c(/C=C/c2cc(/C=C/c3cc(OC)c(OC)cc3F)n(-c3cc(F)cc(F)c3)n2)cc1OC", "=", 4.42],
  ["O=C(COc1cccc(/C=C2\\Oc3ccc4ccccc4c3C2=O)c1)c1ccc(Cl)cc1", "=", 37.5]
]}
